Recorded pIC50 for compounds tested on Neuropeptide Y receptor type 5 (Homo sapiens, UniProt Q15761), drawn from a number of studies.
Sequence (Q15761 whole entry): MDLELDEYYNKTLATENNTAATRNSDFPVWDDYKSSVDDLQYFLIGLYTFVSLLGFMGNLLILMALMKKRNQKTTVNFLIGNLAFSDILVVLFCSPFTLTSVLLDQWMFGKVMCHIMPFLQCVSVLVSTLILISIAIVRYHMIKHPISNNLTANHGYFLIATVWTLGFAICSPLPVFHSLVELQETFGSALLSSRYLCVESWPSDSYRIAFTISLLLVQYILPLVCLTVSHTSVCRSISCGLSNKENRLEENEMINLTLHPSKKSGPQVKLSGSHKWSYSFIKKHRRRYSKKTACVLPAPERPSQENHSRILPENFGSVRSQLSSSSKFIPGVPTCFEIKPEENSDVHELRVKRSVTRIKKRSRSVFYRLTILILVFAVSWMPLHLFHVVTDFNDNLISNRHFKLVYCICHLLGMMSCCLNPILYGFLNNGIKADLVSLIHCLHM
To interpret pIC50, take it as minus log10 of a concentration measured in moles per litre.

Below, each entry is followed by its recorded pIC50 result.
COMPOUND	pIC50
CCS(=O)(=O)N[C@H]1CC[C@H](CNc2cc(-c3ccccc3)on2)CC1	8.47
O=C1OC2(CCN(C(=O)Nc3ccc4ncc(C(F)(F)F)cc4n3)CC2)c2ccccc21	8.60

Qu. So what does the record say about pIC50 for `O=C1Cc2ccccc2C2(CCN(C(=O)Nc3ccc(C(=O)c4ccccc4)cc3)CC2)O1` ?
Ans. 8.82

Qu. Try the compound O=C1OC2(CCC(C(=O)Nc3ncc(-c4ccccc4)cn3)CC2)c2ccccc21 (centres unmarked)
Ans. 9.32

Qu. Try the compound `CC(C)(C)S(=O)(=O)N[C@H]1CC[C@H](C(=O)NNc2cccc(-c3ccccc3)c2)CC1`
Ans. 8.95

Qu. Try the compound `CC(C)S(=O)(=O)NC[C@H]1CC[C@H](Nc2ccc(C(F)(F)F)cn2)CC1`
Ans. 9.15

Qu. Try the compound `CC(C)n1c(=O)oc2cc(NC(=O)N[C@H]3CC[C@H](NS(=O)(=O)C(C)C)CC3)ccc21`
Ans. 9.49

Qu. Try the compound `CC(C)(C)S(=O)(=O)NC[C@H]1CC[C@H](Nc2nc3ccc(C(F)(F)F)cc3s2)CC1`
Ans. 9.41

* * *

Recorded IC50 for compounds tested on Neuropeptide Y receptor type 5 (Homo sapiens), drawn from a number of studies.
Unit nM implied. Number only.

Below, each entry is followed by its recorded IC50 result.
COMPOUND	TESTED TARGET	UNITS SYMBOL	REPORTED RESULT
CC(C)(C)S(=O)(=O)N[C@H]1CC[C@H](c2nc3nc(-c4ccccc4F)ccc3[nH]2)CC1	Neuropeptide Y receptor type 5 (Homo sapiens)	nM	1.4
O=C1OC2(CCC(C(=O)NC(CNCc3ccccc3)Cc3ccccc3)CC2)c2ccccc21 (centres unmarked)	Neuropeptide Y receptor type 5 (Homo sapiens)	nM	1.7
CC1NC(c2cnccn2)=NC1(c1ccc(F)cc1)c1ccc(F)cc1 (centres unmarked)	Neuropeptide Y receptor type 5 (Homo sapiens)	nM	3.4
O=C1OC2(CCC(c3nc4cnc(-c5ccc(F)cc5)nc4[nH]3)CC2)c2cnccc21 (centres unmarked)	Neuropeptide Y receptor type 5 (Homo sapiens)	nM	2.9
CC(C)(C)S(=O)(=O)N[C@H]1CC[C@H](c2nc3nc(-c4ccccc4)ncc3[nH]2)CC1	Neuropeptide Y receptor type 5 (Homo sapiens)	nM	1.6

Qu. So what IC50 did O=C1OC2(CCC(C(=O)NC3CCC(c4cccc(F)c4)CC3)CC2)c2ncccc21 (centres unmarked) get with Neuropeptide Y receptor type 5 (Homo sapiens)?
Ans. 3.6

Qu. Try the compound `O=C1OC2(CCN(c3cc(-c4ccnc(-c5ccccc5)n4)[nH]n3)CC2)c2ccccc21`
Ans. 1.6

Qu. Try the compound C[C@@H]1NC(c2ccc(=O)n(C(F)F)c2)=NC1(c1ccc(F)cc1)c1ccc(C(F)F)nc1 (single isomer, unassigned)
Ans. 2.8

* * *

Recorded pIC50 for molecules tested on UniProt:Q15761, drawn from a number of studies.
To interpret pIC50, take it as minus log10 of a concentration measured in moles per litre.

Below, each entry is followed by its recorded pIC50 result.
MOLECULE	pIC50
C[C@@H]1NC(c2ccc(=O)n(C(F)F)c2)=NC1(c1ccc(F)cc1)c1ccc(C(F)(F)F)nc1 (single isomer, unassigned)	8.57
CCn1cc(C2=NC(c3ccc(F)cc3)(c3ccc(C(F)(F)F)nc3)[C@H](C)N2)cc(F)c1=O (single isomer, unassigned)	8.54
CCCn1c(=O)oc2cc(NC[C@H]3CC[C@H](NS(=O)(=O)CC)CC3)ccc21	8.60
CCn1cc(C2=NC(c3ccc(F)cc3)(c3ccc(C(F)(F)F)nc3)[C@H](C)N2)ccc1=O (single isomer, unassigned)	8.68
O=C1OC2(CCN(c3cc(-c4ccnc(-c5ccccc5F)n4)[nH]n3)CC2)c2cnccc21	8.82
CCCn1cc(C2=NC(c3ccc(F)cc3)(c3ccc(C(F)(F)F)nc3)[C@H](C)N2)ccc1=O (single isomer, unassigned)	8.82
O=C1OC2(CCC(c3nc4cnc(-c5cc(F)ccc5F)nc4[nH]3)CC2)c2cnccc21 (centres unmarked)	8.57
CC(C)S(=O)(=O)N[C@H]1CC[C@H](C(=O)NNc2ccc(Cl)c(Cl)c2)CC1	8.96
O=C1OC2(CCC(c3nc4cnc(-c5ccccc5)nc4[nH]3)CC2)c2ccccc21 (centres unmarked)	8.66
O=C1Cc2ccccc2C2(CCN(C(=O)Nc3cn(-c4ccc5ccccc5n4)cn3)CC2)N1	9.14

Qu. So what pIC50 did O=C1OC2(CCC(c3cc(-c4ccnc(-c5ccccc5)n4)[nH]n3)CC2)c2cnccc21 (centres unmarked) get with UniProt:Q15761?
Ans. 8.41

Qu. Try the molecule O=C1OC2(CCC(c3nn4nc(-c5ccccc5F)cc4[nH]3)CC2)c2cnccc21 (centres unmarked)
Ans. 8.46

Qu. Try the molecule `O=C1OC2(CCN(c3cc(-c4ccnc(-c5ccccc5)n4)[nH]n3)CC2)c2cnccc21`
Ans. 8.82

Qu. Try the molecule O=C1OC2(CCC(c3nn4nc(-c5ccccc5)cc4[nH]3)CC2)c2cnccc21 (centres unmarked)
Ans. 8.48
